- Study System: T1, cynomolgus monkey transferrin (cynomolgus monkey, UniProt A0A2K5UXZ0 20-695)
- T1 construct: also called cynomolgus transferrin
- Assay Notes: SPR, BIAcore T200, cynomolgus monkey transferrin as ligand, sdAb as analyte
Form field: kon (one value per entry).

- Binder: "AS01299VH4-L47 (VHH, Humanized variant of AS01299, C-terminal 6xHis tag; also called AS01299VH4-L47-2) VHH: EVQLVESGGGLVQPGGSLRLSCAASGSIFSIATMAWYRQAPGKGLEWVSGITRSGSTNYRDSVKGRFTISRDNSKNTLYLQMNSLRAEDTAVYYCTDYSSRYYHDYWGQGTLVTVSS"
  kon: "9.3e+06 M⁻¹ s⁻¹"
- Binder: "AS01299VH4 (VHH, Humanized variant of AS01299, C-terminal 6xHis tag) VHH: EVQLVESGGGLVQPGGSLRLSCAASGSIFSIATMAWYRQAPGKGLELVSGITRSGSTNYRDSVKGRFTISRDNSKNTLYLQMNSLRAEDTAVYYCTDYSSRYYHDYWGQGTLVTVSS"
  kon: "5.7e+06 M⁻¹ s⁻¹"
